test system: Rattus norvegicus; test: Percent change of the antiinflammatory activity in the 5-h Evans Blue-Carrageenan induced pleural effusion assay at the dose of 20 mg/kg (p.o.); format: functional; details: route oral
// Change lookup, one value per entry
Give the number; % is assumed, so skip it.

Worked cases, answers included:
{"Compound": "O=C([O-])Cc1ccc(-c2ccccc2)cc1.[Na+]", "Target of assay": "Rattus norvegicus", "Readout units": "%", "Change": -35}
{"Compound": "Nc1cc(-c2ccccc2)ccc1CC(=O)[O-].[Na+]", "Target of assay": "Rattus norvegicus", "Readout units": "%", "Change": -34}
{"Compound": "Nc1c(CC(=O)[O-])cccc1Oc1ccccc1.[Na+]", "Target of assay": "Rattus norvegicus", "Readout units": "%", "Change": -7}
{"Compound": "CC(C(=O)[O-])c1cccc(Oc2ccccc2)c1.[Na+] (stereo not given) [FENOPROFEN SODIUM]", "Target of assay": "Rattus norvegicus", "Readout units": "%", "Change": -29}

Let us examine a further case.
Query string: Answer with the recorded Change of CC(C(=O)[O-])c1ccc(-c2ccccc2)cc1.[Na+] (stereo not given) only.
Result string: -52

###

biological target: Cyclooxygenase (Bos taurus, UniProt O62664+O62698); experiment: Evaluated for the inhibition of Prostaglandin synthetase obtained from bovine seminal vesicles at the dose of 20 mg/kg (p.o.); design: dose 20 mg/kg, route oral
IC50 reference
# output: bare number, implied unit µM

{"Compound": "O=C([O-])Cc1ccc(-c2ccccc2)cc1.[Na+]", "Target of assay": "Cyclooxygenase (Bos taurus, UniProt O62664+O62698)", "IC50 / µM": 420}

Would you kindly look at the next entry?
Query string: Provide only the value of recorded IC50 for CC(C(=O)[O-])c1cccc(Oc2ccccc2)c1.[Na+] (stereo unspecified) [FENOPROFEN SODIUM]
Result string: 98

###

test system: Rattus norvegicus; assay: Persent change of the antiinflammatory activity in the 5-h Evans Blue-Carrageenan induced pleural effusion assay at the dose of 4.0 mg/kg (p.o.); assay type: functional; conditions: route oral
Assay readout: Change (%)
Express your answer in %, writing the number without its unit.

Study these solved cases before continuing.
{"Molecule": "COc1ccc2c(c1)c(CC(=O)O)c(C)n2C(=O)c1ccc(Cl)cc1", "Target of assay": "Rattus norvegicus", "Change (%)": -28}
{"Molecule": "CC(C(=O)[O-])c1cccc(C(=O)c2ccccc2)c1.[Na+] (centres undefined) [KETOPROFEN SODIUM]", "Target of assay": "Rattus norvegicus", "Change (%)": -41}
{"Molecule": "O=C([O-])Cc1cccc(Oc2ccccc2)c1.[Na+]", "Target of assay": "Rattus norvegicus", "Change (%)": -7}

Query string: Quick one: give measured Change for O=C([O-])Cc1cccc(C(=O)c2ccccc2)c1.[Na+]
Result string: -7

###

biological target: Cyclooxygenase (Bos taurus, UniProt O62664+O62698); experiment: Evaluated for the inhibition of Prostaglandin synthetase obtained from bovine seminal vesicles at the dose of 20 mg/kg (p.o.); parameters: dose 20 mg/kg, route oral
Collected IC50 values appear next to each entry.
Give the value, in units of µM, as a plain number.

Consider the following illustrative entries.
{"Molecule": "Nc1cc(-c2ccccc2)ccc1CC(=O)[O-].[Na+]", "Assay value": 170}
{"Molecule": "CC(C(=O)[O-])c1ccc(-c2ccccc2)cc1.[Na+] (centres undefined)", "Assay value": 12}

Shift focus to the following entry.
Query string: // fetch IC50 given entry Nc1c(CC(=O)[O-])cccc1Oc1ccccc1.[Na+]
Result string: 420
